# test: A2780 Cisplatin Sensitive Ovarian Cancer Cell Toxicity qHTS against the NCATS CANVASS Library (AID 1347353); note: nearly all actives have a fitted effect of over 60% in size
# experimental conditions: A2780 ovarian cancer viability, ATPLite luminescence, 72 h; series mostly up to 46.1 µM
Inconclusive results are not listed. Calls of active or inactive are those of the source. Calls come from the whole dose curve; as a rule, active = well fitted cell-killing curve with a large enough effect; inconclusive = small, poorly fitted or top-dose-only effect; inactive = flat fitted curve, though single readings scatter.
Choose one outcome from this list and give only that: active, inactive

Before answering, review these 2 worked examples.
| compound | answer label |
| --- | --- |
| CO[C@@H]1C[C@@H](C[C@H]2CC[C@H](C)[C@H]([C@@H](C)C(=O)O)O2)O[C@]2(O[C@](C)([C@H]3CC[C@@](C)([C@@H]4O[C@@H]([C@H]5O[C@](C)(O)[C@H](C)C[C@@H]5C)C[C@@H]4C)O3)C[C@H]2C)[C@@H]1C | active |
| C=C1C[C@@]23C=CC(=O)[C@@](C)(CCCC(C)C(=O)O)[C@@H]2C[C@@H]1CC3 (stereo partly drawn) | inactive |

Here's the next entry for you.
Status in this test for CC(C)(Br)[C@@H](Cl)C[C@H](Br)[C@](C)(Cl)/C=C/Br ?
active

----------
# test: qHTS for Inhibitors of Plasmodium falciparum (HB3) proliferation (AID 504318); note: nearly all actives have a fitted effect of over 60% in size
# experimental conditions: P. falciparum HB3 in erythrocytes, SYBR Green DNA, 72 h; series mostly up to 7.21 µM
Records with an inconclusive call do not appear. The source made the active and inactive calls. Calls come from the whole dose curve; as a rule, active = well fitted inhibition curve with a large enough effect; inconclusive = small, poorly fitted or top-dose-only effect; inactive = flat fitted curve, though single readings scatter.
Choose one outcome from this list and give only that: active, inactive

| molecule | answer label |
| --- | --- |
| CCOC(=O)OC[C@H]1O[C@H](C#Cc2ccc(F)cc2F)C=C[C@H]1OC(=O)OCC | inactive |
| Cc1ccc(C(O)C2=CCCC2=O)cc1 (stereo not given) | inactive |
| CCN1C(=O)N[C@@H](c2cccc(C(F)(F)F)c2)[C@H](C(C)=O)[C@H]1C | inactive |
| C=CCOC(=O)N[C@@H](CC(C)C)C(C(=O)OC)=C(C)NCc1ccccc1 | inactive |
| COC(=O)CC=C[C@@H](C)[C@H](O)c1ccccc1Br | active |
| CCOC(=O)CN1C(=O)N(CC)C(C)=C(C(=O)OC)C1c1ccccc1 (stereo not given) | inactive |

Status in this test for CCN1C(=NCc2ccccc2)N[C@@H](CCc2ccccc2)[C@H](C(=O)OC)[C@H]1C ?
inactive

Status in this test for COC(=O)C=C[C@H]1c2ccccc2[C@@H](OC)[C@@H]1C ?
inactive

Status in this test for CCN1C(=O)N[C@@H](c2ccccc2)[C@@H](C(=O)OC)[C@H]1C ?
inactive

----------
# test: Tertiary RLuc qRT-PCR qHTS assay for Zika virus inhibitors (AID 1347169); note: nearly all actives have a fitted effect of over 55% in size
# experimental conditions: infected Vero cells, reporter luminescence, 48-72 h; series mostly up to 1.74 µM
Records with an inconclusive call do not appear. Active and inactive are the calls of the source. Calls come from the whole dose curve; as a rule, active = well fitted inhibition curve with a large enough effect; inconclusive = small, poorly fitted or top-dose-only effect; inactive = no such curve, though single readings can be large or run the other way.
Choose one outcome from this list and give only that: active, inactive

Before answering, review these 8 worked examples.
| molecule | answer label |
| --- | --- |
| CC(Oc1ccccc1)C(=O)Nc1ccc(C(=O)OCc2cc(=O)n3nc(C4CC4)sc3n2)cc1 (centres undefined) | inactive |
| Cc1cc(=O)c2c(O)c3c(O)cc(O)c4c5c(O)cc(O)c6c(O)c7c(=O)cc(C)c8c1c2c(c34)c(c65)c78 | inactive |
| O=C(O)c1ccc(-c2ccc(OC(F)(F)F)cc2)cc1 | inactive |
| Cc1cccc(OCC(=O)Nc2ccc(C(=O)OCc3cc(=O)n4nc(C5CC5)sc4n3)cc2)c1 | inactive |
| O=C(O)c1ccc(-c2cccc(C(F)(F)F)c2)cc1 | inactive |
| O=C(O)c1ccc(NS(=O)(=O)c2ccc(Cl)c(C(=O)Nc3ccccc3)c2)cc1 | inactive |
| COC(=O)c1ccc(C(=O)Nc2ccc(-c3nc4cc(NC(=O)c5ccc(C(=O)OC)cc5)ccc4o3)cc2)cc1 | inactive |
| CC(=O)N1c2ccc(-c3ccc(C(=O)O)cc3)cc2C(Nc2ccc(Cl)cc2)CC1C (centres undefined) | active |

Here's the next entry for you.
Status in this test for O=c1oc2ccc3ccccc3c2cc1-c1nnc(Nc2cccc(C(F)(F)F)c2)s1 ?
inactive

----------
# test: Viability qHTS for inhibitors of the SERCaMP assay screened against the NCATS CANVASS Library (AID 1347400); note: nearly all actives have a fitted effect of over 70% in size
# experimental conditions: SH-SY5Y SERCaMP cells viability, CellTiter-Glo, 48 h; series mostly up to 92.2 µM
Inconclusive results are not listed. The source made the active and inactive calls. Calls come from the whole dose curve; as a rule, active = well fitted cell-killing curve with a large enough effect; inconclusive = small, poorly fitted or top-dose-only effect; inactive = flat fitted curve, though single readings scatter. Numbered stars: 1 amine (or outer) side, 2 acyl side, 3 side chain; on linkers, the order of the positions; unused ones are H or OH. Square brackets hold non-standard residues; d marks the D form. Peptide text beside a SMILES is read from it. ξ: configuration not given here. X4 = O=C(C1CC2(c3ccc(O)cc3)c3ccccc3NC2N1[*:1])[*:2]; ξW = NC(Cc1c[nH]c2ccccc12)C(=O)O; ξY = NC(Cc1ccc(O)cc1)C(=O)O
Choose one outcome from this list and give only that: 1 (active), 0 (inactive)

Before answering, review these 4 worked examples.
| compound | answer label |
| --- | --- |
| CC[C@H](C)[C@H](NC(=O)C(Cc1ccc(O)cc1)NC(=O)C(Cc1c[nH]c2ccccc12)NC(=O)[C@H](C)N)C(=O)N1C(C(=O)NC(Cc2ccc(O)cc2)C(=O)O)CC2(c3ccc(O)cc3)c3ccccc3NC12 (stereo not given in full) (H-A[ξW][ξY]I[X4][ξY]-OH) | 0 |
| C/C=C1/CC[C@@H]2c3[nH]c4ccccc4c3CCN2C1 | 0 |
| C=C1C[C@@]23C=CC(=O)[C@@](C)(CCC(=O)Nc4c(O)ccc(C(=O)O)c4O)C2C[C@@H]1CC3O (stereo not given in full) | 0 |
| CCCCCCCCCCCCCCC[C@H](O)C[C@@H](O)C[C@@H](O)C[C@@H](O)C[C@@H](O)C[C@H]1CC=CC(=O)O1 | 1 |

Status in this test for CC(O)/C=C/C1(O)C(C)(C)CC(O)CC1(C)O (stereo not given) ?
0

----------
# test: Primary qHTS for inhibitors of nuclear receptor binding SET domain protein 2 (NSD2) in an isogenic RCH-ACV NSD2 p.E1099K mutant (9B) (AID 1645876); note: nearly all actives have a fitted effect of over 70% in size
# experimental conditions: RCH-ACV (leukaemia line) NSD2 E1099K (9B) viability, CellTiter-Glo, 72 h; series mostly up to 44.9 µM
Records with an inconclusive call do not appear. Activity calls are given as the source filed them. Calls follow the shape of the dose curve; as a rule, active = well fitted inhibition curve with a large enough effect; inconclusive = small, poorly fitted or top-dose-only effect; inactive = flat fitted curve, though single readings scatter.
Choose one outcome from this list and give only that: active, inactive

Before answering, review these 4 worked examples.
| molecule | answer label |
| --- | --- |
| COc1cccc(CNC(=O)Nc2nc(-c3ccncc3)cs2)c1 | active |
| Cc1cc2ncc(-c3ccccc3)nc2cc1C | inactive |
| Cn1cnc(-c2nccc3c(=O)[nH]c(OCCCC(F)(F)F)nc23)c1 | active |
| O=c1c(-n2ccnn2)c[nH]n1-c1cc(N2CCOCC2)ncn1 | active |

Status in this test for COc1ccc(C(=O)N(CCC(C)C)Cc2nc(C)c(C)n2Cc2ccccc2C)c(OC)c1 ?
active

Status in this test for OCC(O)CCO/N=C1/C(c2c(O)[nH]c3ccccc23)=Nc2ccccc21 (stereo unspecified) ?
active

----------
# test: Viability qHTS for inhibitors of the SERCaMP assay screened against the NCATS CANVASS Library (AID 1347400); note: nearly all actives have a fitted effect of over 70% in size; note: potency is the fitted concentration of half-maximal effect
# experimental conditions: SH-SY5Y SERCaMP cells viability, CellTiter-Glo, 48 h; series mostly up to 92.2 µM
Results filed as inconclusive are left out. Active and inactive are the calls of the source. Calls follow the shape of the dose curve; as a rule, active = well fitted cell-killing curve with a large enough effect; inconclusive = small, poorly fitted or top-dose-only effect; inactive = flat fitted curve, though single readings scatter.
experimental endpoint: Potency

| compound | experimental endpoint | reported |
| --- | --- | --- |
| COC1C(O)C(OC(N)=O)C(Oc2ccc3c(O)c(NC(=O)c4ccc(O)c(CC=C(C)C)c4)c(=O)oc3c2C)OC1(C)C (stereo not given) | Potency | inactive |
| CC(=O)O[C@@H]1C=C2C(=O)OC[C@]2(O)[C@@]2(C)CCCC(C)(C)[C@H]12 | Potency | 12 µM (active) |
| C[C@H]1C[C@@H]([C@@H]2CC[C@]34O[C@H](CC[C@@]35C[C@H](C)C(=O)O5)CN24)OC1=O | Potency | inactive |
| C[C@@H]1C(=O)[C@]23CC[C@H]1C[C@]21O[C@H]2C(C)(C)C=CC(=O)[C@@]23COC1=O | Potency | inactive |

The measured Potency associated with CN1CC[C@]2(c3cccc4c3N[C@@H]3N(C)CC[C@]43[C@@]34CCN(C)[C@@H]3Nc3c([C@]56CCN(C)[C@H]5Nc5ccccc56)cccc34)c3ccccc3N[C@H]12 reads 4.8 µM (active)

----------
# test: qHTS for Activators of p53 Stress Response Pathway screened against the NCATS CANVASS Library (AID 1347388); note: 0% is about no effect
# experimental conditions: p53RE-bla HCT-116, beta-lactamase reporter, 16 h; series mostly up to 46.1 µM
Results filed as inconclusive are left out. Active and inactive are the calls of the source. The call rests on the fitted dose curve; in most records, active means well fitted activation curve with a large enough effect; inconclusive means small, poorly fitted or top-dose-only effect; inactive means flat fitted curve, though single readings scatter.
Choose one outcome from this list and give only that: y (active), n (inactive)

Before answering, review these 4 worked examples.
| compound | answer label |
| --- | --- |
| CCCCCCC[C@@H](C/C=C/CCC(=O)NCCc1c[nH]c2ccccc12)OC | n |
| CC1C(=O)C23CCC1C[C@]21O[C@@H]2C(C)(C)C=CC(=O)[C@@]23COC1=O (stereo partly specified) | n |
| CCCCCCCCC[C@@H]1C[C@@H]2CC[C@H]3[C@@H](C(=O)OCCCCN=C(N)N)[C@@H](C)N=C(N1)N23 | n |
| C[C@@H]1C[C@H]2C[C@]3(CCCCN3C)[C@@H]3C[C@H]2[C@H](C1)N(C)C3 | n |

Status in this test for C[C@@]12CCC[C@@](C)(C(=O)O)[C@H]1C[C@@H](O)[C@]13C[C@H]4C[C@H](O[C@@]4(C)C1)[C@@H]23 ?
n

Status in this test for CC1(C)C=Cc2c(ccc3c2OC[C@@H](c2ccc(O)cc2O)C3)O1 ?
n

Status in this test for C=C1C[C@@]23C=CC(=O)[C@@](C)(CCC(=O)Nc4c(OC5O[C@H](CO)[C@@H](O)[C@H](O)[C@H]5O)ccc(C(=O)O)c4O)C2C[C@@H]1CC3 (stereo partly specified) ?
n

Status in this test for CO[C@@H]1[C@H](O)[C@@H](C)O[C@@H](OC[C@H]2/C=C/C=C/C(=O)C(C)C[C@H](C)C(O[C@@H]3O[C@H](C)CC4(OC(=O)O[C@@H]4C)C3O)[C@@H](C)/C=C/C(=O)OC2C)[C@@H]1OC (stereo partly specified) ?
n

Status in this test for C=C[C@@]1(C)CC[C@@H]([C@H](C)C(=O)/C=C/C(C)C)O1 ?
n

Status in this test for C=C[C@]1(C)CC[C@@H]([C@H](C)C(=O)OCC)O1 ?
n

Status in this test for COc1cc(/C=C/C(=O)O)ccc1O ?
n
